For each entry below, report its collision cross section in nitrogen value.
- METHOD SUMMARY: collision cross section in nitrogen (drift tube, single-field); higher = larger gas-phase ion size;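 further: chemical standards at 10 µM analysed by drift tube IMS-QTOF MS in about 3.95 torr nitrogen, mean of duplicate injections differing ≤1%, mass error below 10 ppm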
- MEASUREMENT CONDITIONS: ion type: [M-H]; ion source: ESI; ion mode: Negative
# number only, unit Å² dropped from output

Request the reported collision cross section in nitrogen associated with Cc1cc(C(C)(C)c2ccc(O)c(C)c2)ccc1O [3,3'-Dimethylbisphenol A]
172.9

What value of collision cross section in nitrogen has been reported for the following molecule? OC[C@@H](O)[C@@H](O[C@@H]1O[C@H](CO)[C@H](O)[C@H](O)[C@H]1O)[C@H](O)[C@@H](O)CO [D-Lactitol monohydrate]
171.4

What value of collision cross section in nitrogen has been recorded for this entry: CC(C)OP(=O)(CP(=O)(OC(C)C)OC(C)C)OC(C)C [Tetraisopropyl methylenediphosphonate]
177.7

May I ask what collision cross section in nitrogen has been recorded for CCC(C)(CCC(C)C)C(=O)O (stereo not given) [Neodecanoic acid] ?
145.2

Recorded collision cross section in nitrogen for O=C(OCc1ccccc1)c1ccccc1O [Benzyl salicylate] , please?
153.3

What does the record list as collision cross section in nitrogen for O=C(CC(C(=O)OC1CCCCC1)S(=O)(=O)O)OC1CCCCC1 (stereo not given) [Dicyclohexyl sodium sulfosuccinate] ?
188.4

// collision cross section in nitrogen lookup, key: O=C(c1ccccc1)c1ccccc1O [2-Hydroxybenzophenone]
143.4

Data request, read-out collision cross section in nitrogen, for O=C(Oc1ccccc1)c1ccccc1O [Phenyl salicylate]
145.7

Given the entry "COCCOc1cc2cc(C(=O)NC3CCN(C(C)C)CC3)n(CC(=O)Nc3ccc(Cl)cn3)c2cn1" , report its measured collision cross section in nitrogen.
235.2

Entry "Cc1cc(Cl)ccc1OCC(=O)O" has what collision cross section in nitrogen?
146.1
